Assay Procedure: chemical genetic growth profiling, strain panel (AID 1159580);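 also: tested at 20 µM; growth read once vehicle control cultures reached saturation at 30 °C; 1 = growth at the plate median or of vehicle wells; lower values mean less growth of the strain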
Condition Info: S. cerevisiae deletion strains, growth OD, locus YOR265W, strain rbl2, hits give low values
The campaign covered roughly 5,500 compounds. About 2,000 (36%) were called active. Not shown: some 18% with an inconclusive outcome. The list shows a part of the results.
Entries and their measured normalized growth follow.

Compound	normalized growth
O=c1cc(-c2cccc(O)c2)oc2ccc(O)cc12	0.958
CN1CCN2c3ccccc3Cc3ccccc3C2C1 (stereo unspecified)	1
CC(=O)Nc1cccc(O)c1	1.01
CC(C(=O)O)[C@H]1CCC2C3CC=C4C[C@@H](O)CC[C@]4(C)C3CC[C@@]21C (stereo partly specified)	1.02
CCCCOc1cc(CC2CNC(=O)N2)ccc1OC (stereo unspecified)	0.998
O=c1cc(-c2ccc(O)c(O)c2)oc2ccccc12	1.01
CC(C)(C)C(=O)C(Oc1ccc(Cl)cc1)n1cncn1 (stereo unspecified)	0.164
CC(=O)OCC(=O)[C@H]1CCC2C3CC=C4C[C@@H](O)CC[C@]4(C)C3CC[C@@]21C (stereo partly specified)	0.979
O=c1cc(-c2ccc(O)cc2)oc2ccc(O)cc12	0.961
COc1cc2c3cc1Oc1cc(ccc1O)C[C@@H]1c4c(cc(OC)c(O)c4Oc4ccc(cc4)C[C@@H]3N(C)CC2)CC[N+]1(C)C	0.999
CC(=O)Nc1ccc(OC(=O)c2ccccc2O)cc1	0.987

---

Assay Procedure: chemical genetic growth profiling, strain panel (AID 1159580)
Condition Info: S. cerevisiae deletion strains, growth OD, locus YIL073C, strain SPO22, hits give low values
Hit rate of the full screen: of about 5,500 compounds, about 2,000 (36%) were called active. Roughly 18% stayed inconclusive and do not appear here. The list shows a part of the results.
Classify by normalized growth. Ranges: lowest (below 0.9), middle (0.9 to below 1), highest (1 or more)

Compound	Assigned Class
COc1ccc(-c2cc(=O)c3c(OC)cccc3o2)cc1	highest
CC(=O)O.CC(=O)O.[Cd]	lowest
CC[N+]1(C)CCCC(OC(=O)C(O)(c2ccccc2)c2ccccc2)C1 (stereo unspecified)	highest
O=C1CC[C@]23C=CC(=O)NCCCCNCCCNC(=O)/C=C/c4ccc(c2c4)O[C@@H]3C1	middle
COc1ccc(-c2cc(=O)c3ccccc3o2)cc1	lowest

---

Assay Procedure: chemical genetic growth profiling, strain panel (AID 1159580)
Condition Info: S. cerevisiae deletion strains, growth OD, locus YHR030C, strain SLT2
Among all 5,500 compounds or so, about 2,000 (36%) were called active. Another 18% or so got no clear call; they are omitted. Cut-off read from the data, not from the text of the source: active = normalized growth mostly below about 0.91 (no sharp cut-off); inconclusive = no clear call, values can overlap the other calls; inactive = mostly above about 0.92. This is one part of the list.
Classes used: 1.0 = active, 0.0 = inactive

Compound	Assigned Class
Cc1cc(C(F)(F)F)c(C#N)c(=O)[nH]1	0.0
Clc1ccc(-c2csc(-c3ccno3)n2)s1	1.0
COc1cc(NC(=S)Nc2ccccc2OC(F)(F)F)cc(C(F)(F)F)c1	1.0
CCCCCCCCCCc1ccc(-c2ccccc2)cc1	0.0
Clc1cccc(-c2csc(Nc3cccnc3)n2)c1	0.0
CC(=O)Nc1cccc(O)c1	0.0
O=c1[nH]c2cc(Cl)c(Cl)cc2[nH]c1=O	0.0
CSc1ccc(C(=O)O)s1	0.0
CC(C)CSc1nnc(CSCc2nc(-c3ccc(Cl)cc3)cs2)n1C	0.0
O=C(CSCc1nc(-c2ccc(Cl)cc2)cs1)N/N=C\c1cccs1	0.0
Nc1ccc(C(=O)O)c(O)c1 (tested in a mixture with another compound)	0.0
COc1ccc(-c2cc(=O)c3ccccc3o2)cc1OC	0.0

---

Assay Procedure: chemical genetic growth profiling, strain panel (AID 1159580)
Condition Info: S. cerevisiae deletion strains, growth OD, locus YOR001W, strain rrp6, hits give low values
About 2,000 (36%) of roughly 5,500 compounds were called active. Roughly 18% stayed inconclusive and do not appear here. The list shows a part of the results.
Parameter: normalized growth

Compound	Parameter	Measured Result
Nc1ccc(C(=O)Oc2ccccc2)c(O)c1	normalized growth	0.92 (inactive)
CC1(C)O[C@@H]2CC3C4C[C@H](F)C5=CC(=O)C=C[C@]5(C)[C@@]4(F)[C@@H](O)C[C@]3(C)[C@]2(C(=O)CO)O1 (stereo not given in full)	normalized growth	0.98 (inactive)
O=C1CN2Cc3c(ccc(Cl)c3Cl)N=C2N1	normalized growth	0.996 (inactive)
CCC(CCC(C)[C@H]1CCC2C3CC=C4C[C@@H](O)CC[C@]4(C)C3CC[C@@]21C)C(C)C (stereo not given in full)	normalized growth	1.03 (inactive)
CC(=O)OCC(=O)[C@H]1CCC2C3CC=C4C[C@@H](O)CC[C@]4(C)C3CC[C@@]21C (stereo not given in full)	normalized growth	1.02 (inactive)
CC1(C)O[C@@H]2CC3C4CCC5=CC(=O)C=C[C@]5(C)[C@@]4(F)[C@@H](O)C[C@]3(C)[C@]2(C(=O)CO)O1 (stereo not given in full)	normalized growth	1 (inactive)
CC(=O)O[C@@H]1CC2C(C)(C)C(=O)CC[C@]2(C)C2CC[C@@]3(C)[C@H](c4ccoc4)OC(=O)C4OC43[C@@]21C (stereo not given in full)	normalized growth	0.925 (inactive)
CC(=O)Nc1ccc(OC(=O)c2ccccc2O)cc1	normalized growth	0.962 (inactive)
Nc1ccc(C(=O)O)c(O)c1	normalized growth	1.04 (inactive)
Nc1nnc(-c2cccc(Cl)c2Cl)c(N)n1	normalized growth	1.02 (inactive)
CC(=O)[C@H]1CCC2C3CC=C4C[C@@H](O)CC[C@]4(C)C3CC[C@@]21C (stereo not given in full)	normalized growth	0.904 (inactive)
CC(=O)OCC(=O)[C@@]1(O)CCC2C3CC[C@@H]4C[C@H](O)CC[C@]4(C)C3C(=O)C[C@@]21C (stereo not given in full)	normalized growth	1.01 (inactive)
CCOC(=O)C1C(C=C(C)C)C1(C)C (stereo not given)	normalized growth	0.981 (inactive)
CN(C)C(=O)Oc1cc(OC(=O)N(C)C)cc(C(O)CNC(C)(C)C)c1 (stereo not given)	normalized growth	0.999 (inactive)
NS(=O)(=O)c1cc2c(cc1C(F)(F)F)NCNS2(=O)=O	normalized growth	1.01 (inactive)
CC(=O)O[C@H]1C[C@@H](O)C(C)(C)C2C[C@@H](OC(C)=O)[C@]3(C)C(CC[C@@]4(C)[C@H](c5ccoc5)OC(=O)C5OC543)[C@]21C (stereo not given in full)	normalized growth	1.03 (inactive)
CC(C(=O)O)[C@H]1CCC2C3CC=C4C[C@@H](O)CC[C@]4(C)C3CC[C@@]21C (stereo not given in full)	normalized growth	0.997 (inactive)
N[C@H](CO)Cc1ccccc1	normalized growth	1.03 (inactive)
NC(=O)CC[C@@H](N)C(=O)O	normalized growth	1.04 (inactive)
ClC(Cl)=C(c1ccc(Cl)cc1)c1ccc(Cl)cc1	normalized growth	0.989 (inactive)

---

Assay Procedure: chemical genetic growth profiling, strain panel (AID 1159580);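 also: tested at 20 µM; growth read once vehicle control cultures reached saturation at 30 °C; 1 = growth at the plate median or of vehicle wells; lower values mean less growth of the strain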
Condition Info: S. cerevisiae deletion strains, growth OD, locus YPL153C, strain RAD53
Screen size: about 5,500 compounds; about 2,000 (36%) were called active. Inconclusive results (about 18%) are left out. Rule as the data show it: active = normalized growth mostly below about 0.91 (no sharp cut-off); inconclusive = no clear call, values can overlap the other calls; inactive = mostly above about 0.92. The list shows a part of the results.
Classes used: Y (active), N (inactive)

Smiles Data	Assigned Class
O=C1c2ccccc2O[C@@H](c2ccccc2)[C@@H]1NC1CCCCC1	N
CN(C(=O)N(C)c1ccc(Cl)cc1C(=O)c1ccccc1Cl)c1ccc(Cl)cc1C(=O)c1ccccc1Cl	Y
Cc1ccc2c(c1)CCCN2CC(=O)N(c1ccccc1)C1CCCCC1	N
O=C1c2ccccc2O[C@@H](c2ccccc2)[C@@H]1NCc1ccccc1	N
O=C(NCc1cccs1)c1csc(Cc2c(Cl)cccc2Cl)n1	N
O=C(NNC(=O)c1csc(-c2cccs2)n1)c1ccc(C(F)(F)F)cc1	Y

---

Entries and their measured normalized growth follow.
Assay Procedure: chemical genetic growth profiling, strain panel (AID 1159580);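 also: tested at 20 µM; growth read once vehicle control cultures reached saturation at 30 °C; 1 = growth at the plate median or of vehicle wells; lower values mean less growth of the strain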
Condition Info: S. cerevisiae deletion strains, growth OD, locus YDL040C, strain nat1, hits give low values
About 2,000 (36%) of roughly 5,500 compounds were called active. Roughly 18% stayed inconclusive and do not appear here. This is one part of the list.

Smiles Data	normalized growth
COc1ccc(-c2cc(=O)c3c(O)c(OC)c(OC)c(OC)c3o2)cc1	0.993
COc1ccc(-c2cc(=O)c3cc(OC)ccc3o2)cc1	0.95
CC(C)Oc1ccc2c(=O)cc(-c3ccccc3)oc2c1	0.953
COc1ccc(-c2cc(=O)c3c(OC)c(OC)c(OC)c(OC)c3o2)cc1	0.975
COc1ccc(-c2cc(=O)c3ccccc3o2)cc1	0.923
CCN(CC)CCNc1ccc(CO)c2sc3ccccc3c(=O)c12	0.993

---

Assay Procedure: chemical genetic growth profiling, strain panel (AID 1159580);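 also: tested at 20 µM; growth read once vehicle control cultures reached saturation at 30 °C; 1 = growth at the plate median or of vehicle wells; lower values mean less growth of the strain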
Condition Info: S. cerevisiae deletion strains, growth OD, locus YDL040C, strain nat1, hits give low values
Screen size: about 5,500 compounds; about 2,000 (36%) were called active. About 18% were inconclusive and are not listed. The list shows a part of the results.
Parameter: normalized growth

Compound	Measured Result
Nc1nnc(-c2cccc(Cl)c2Cl)c(N)n1	1.02
CN1CCN2c3ccccc3Cc3ccccc3C2C1 (stereo not drawn)	1
COc1ccc(-c2cc(=O)c3c(OC(C)=O)cc(OC(C)=O)cc3o2)cc1	0.986
CC1(C)O[C@@H]2CC3C4CCC5=CC(=O)C=C[C@]5(C)[C@@]4(F)[C@@H](O)C[C@]3(C)[C@]2(C(=O)CO)O1 (stereo partly drawn)	0.988
O=c1c(-c2cc(O)c(O)c(O)c2)coc2cc(O)c(O)c(O)c12	1.02
NC(=O)CC[C@@H](N)C(=O)O	1.02
ClC(Cl)=C(c1ccc(Cl)cc1)c1ccc(Cl)cc1	0.994
NCC(=O)CCC(=O)O	0.979

Hey, just so you know, these numbers are from PubChem BioAssay AID1159580.
